Tested on: Huh-7.5 cells
Assay: Cell viability assay ([…]-GLO)
Assay type: cell-based, human
Details: 10 μM
In this section we review reported Cell Viability (% @ 10 μM) values for a set of compounds.

Smiles Input	Unit	Cell Viability (% @ 10 μM)
Cc1ccc2nc(-c3ccc4nc(-c5ccc(NC(=O)Nc6ccc(C(F)(F)F)cc6)cc5)sc4c3)sc2c1S(=O)(=O)O.N	%	99
Cc1ccc2nc(-c3ccc(NC(=O)c4ccc(NC(=O)c5ccc(C(F)(F)F)cc5)cc4)cc3)sc2c1S(=O)(=O)O.N	%	97
Cc1ccc(NC(=O)Nc2ccc(-c3nc4ccc(-c5nc6ccc(C)c(S(=O)(=O)O)c6s5)cc4s3)cc2)cc1	%	93
Cc1ccc2nc(-c3ccc(NC(=O)c4ccc(NC(=S)Nc5ccccc5)cc4)cc3)sc2c1S(=O)(=O)O.N	%	106
Cc1ccc2nc(-c3ccc4nc(-c5ccc(NC(=O)c6cc(C(F)(F)F)ccc6F)cc5)sc4c3)sc2c1S(=O)(=O)O	%	132
Cc1ccc2nc(-c3ccc4nc(-c5ccc(NC(=O)c6ccc(C(C)(C)C)cc6)cc5)sc4c3)sc2c1S(=O)(=O)O	%	87
Cc1ccc2nc(-c3ccc4nc(-c5ccc(NC(=O)c6ccncc6)cc5)sc4c3)sc2c1S(=O)(=O)O	%	117
